Test system: SF-539
Assay: NCI tumour cell line growth inhibition, 48 h
Activity calls are given as the source filed them. Cut-off read from the data, not from the text of the source: active = GI50 up to about 1.1 µM and inactive = higher.
Outcomes: active, inactive

{"COMPOUND": "Clc1cc(Cl)cc(C2SCc3nc4ccccc4n32)c1 (stereo unspecified)", "QUALITATIVE_LABEL": "inactive"}
{"COMPOUND": "Cc1c(/N=N/c2ccccc2)c(C)n(C2OC(CO)C(O)C(O)C2O)c(=S)c1C#N (stereo unspecified)", "QUALITATIVE_LABEL": "inactive"}
{"COMPOUND": "CCCCCCCCOC1C(O)C(O)C(O)C(O)C12CO2 (stereo unspecified)", "QUALITATIVE_LABEL": "inactive"}
{"COMPOUND": "O=C1c2ccccc2C(=O)c2c(NC3CCCCC3)ccc(Nc3ccc(S(=O)(=O)O)cc3)c21", "QUALITATIVE_LABEL": "inactive"}
{"COMPOUND": "CC(=O)c1[nH]c(Nc2ccc(C)cc2)c(C(=S)Nc2ccccc2)c1N", "QUALITATIVE_LABEL": "inactive"}
{"COMPOUND": "CS(=O)(=O)Nc1ccc2ccccc2c1-c1c(NS(C)(=O)=O)ccc2ccccc12", "QUALITATIVE_LABEL": "inactive"}
{"COMPOUND": "CCOC(=O)CC[C@H](NC(=O)[C@H](N)Cc1ccc(N(CCCl)CCCl)cc1)C(=O)OCC", "QUALITATIVE_LABEL": "inactive"}
{"COMPOUND": "Cc1ccc(/N=N/c2ccc(N(CCC#N)CCC#N)cc2C)c(Br)c1", "QUALITATIVE_LABEL": "inactive"}
{"COMPOUND": "CC(C)(C)OC(=O)N[C@H]1CCN(C2CCCCC2)C1=O", "QUALITATIVE_LABEL": "inactive"}
{"COMPOUND": "CCCOc1ccc(/C=C/c2cc(OC)c(OC)c(OC)c2)cc1", "QUALITATIVE_LABEL": "active"}
{"COMPOUND": "N#CNC(=N)Nc1ccc(Cl)cc1", "QUALITATIVE_LABEL": "inactive"}
